# ASSAYED SYSTEM: PDE7A1 (Homo sapiens, UniProt Q13946)
# Construct: purchased Calbiochem 524751
# Sequence (Q13946 whole entry): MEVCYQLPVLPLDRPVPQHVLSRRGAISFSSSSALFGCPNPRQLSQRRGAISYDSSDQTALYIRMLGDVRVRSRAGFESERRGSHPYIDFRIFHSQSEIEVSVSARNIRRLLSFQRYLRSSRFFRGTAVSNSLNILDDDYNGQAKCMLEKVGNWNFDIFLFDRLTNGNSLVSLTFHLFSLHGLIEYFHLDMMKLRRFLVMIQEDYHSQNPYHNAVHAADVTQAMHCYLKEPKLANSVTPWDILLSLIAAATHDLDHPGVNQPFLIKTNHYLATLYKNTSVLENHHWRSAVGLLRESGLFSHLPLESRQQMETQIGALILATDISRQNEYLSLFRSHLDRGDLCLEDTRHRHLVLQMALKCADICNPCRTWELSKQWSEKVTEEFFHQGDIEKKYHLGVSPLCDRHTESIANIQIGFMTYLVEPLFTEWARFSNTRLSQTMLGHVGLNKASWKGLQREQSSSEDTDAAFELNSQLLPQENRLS
# ASSAY SUMMARY: Determination of PDE7 inhibition (SPA, [3H]cAMP)
# Assay type: biochemical
# TEST CONTEXT: 1,2,4-thiadiazoles-5-imino substituted as free bases; read-out: IC50 (PDE7A)
VALUE KIND: IC50 (µM)
# value in µM; strip the unit string

Name the reported IC50 value associated with the compound c1ccc(N=c2nc(-c3ccccc3)n(-c3ccccc3)s2)cc1 [R1=Ph, R2=Ph, R3=Ph (free base)]
3.52

---

Can you tell me Papp at 4 h for the items I'm about to list?
# ASSAY SUMMARY: in vitro
# TEST CONTEXT: PAMPA, pH 7.4
Where a name gives a salt, the structure may show the parent alone.
# value in ×10⁻⁶ cm/s; strip the unit string

Name the reported Papp at 4 h value associated with the compound OCCN=c1nc(-c2ccccc2)n(-c2ccccc2)s1 [VP-2.3, hydrochloride]
15

Name the reported Papp at 4 h value associated with the compound `Br.COc1ccc(-c2nc(=NCCO)sn2-c2ccccc2)cc1`
13.7

Name the reported Papp at 4 h value associated with the compound `Br.CCOC(=O)CN=c1nc(-c2ccc(OC)cc2)n(-c2ccccc2)s1`
3.8

Name the reported Papp at 4 h value associated with the compound `Br.Br.Cc1nc(=NCc2cccnc2)sn1-c1ccccc1`
5.3

Name the reported Papp at 4 h value associated with the compound `Br.CCOC(=O)CN=c1nc(-c2ccccc2)n(-c2ccc(OC)cc2)s1`
4

Name the reported Papp at 4 h value associated with the compound `Br.OCCN=c1nc(-c2cccc3ccccc23)n(-c2ccccc2)s1`
10.2

Name the reported Papp at 4 h value associated with the compound `Br.OCCN=c1nc(-c2ccccc2)n(-c2ccccc2)s1`
15.4

Name the reported Papp at 4 h value associated with the compound `Br.Br.COc1ccc(-c2nc(=NCc3cccnc3)sn2-c2ccccc2)cc1`
4.4

---

# ASSAY SUMMARY: in vitro
# TEST CONTEXT: PAMPA
Counter-ions that a name gives are not always drawn.
VALUE KIND: Prediction (predictive penetration in the CNS)

Br.Br.c1ccc(-c2nc(=NCc3cccnc3)sn2-c2ccccc2)cc1 [VP-1.14] : CNS+
Br.Br.COc1ccc(-c2nc(=NCc3cccnc3)sn2-c2ccccc2)cc1 [VP-1.43] : CNS+
Br.Br.COc1ccc(-n2sc(=NCc3cccnc3)nc2-c2ccccc2)cc1 [VP-1.60] : CNS+
OCCN=c1nc(-c2ccccc2)n(-c2ccccc2)s1 [VP-2.3, hydrochloride] : CNS+
Br.CCOC(=O)CN=c1nc(-c2ccccc2)n(-c2ccccc2)s1 [VP-1.16] : CNS+
Br.CCOC(=O)CN=c1nc(-c2ccccc2)n(-c2ccc(OC)cc2)s1 [VP-1.62] : CNS+/CNS−

Name the reported Prediction (predictive penetration in the CNS) value associated with the compound Br.OCCN=c1nc(-c2ccccc2)n(-c2ccccc2)s1 [VP-1.15]
CNS+

Name the reported Prediction (predictive penetration in the CNS) value associated with the compound Br.COc1ccc(-n2sc(=NCCO)nc2-c2ccccc2)cc1 [VP-1.61]
CNS+

---

Can you tell me IC50 for the items I'm about to list?
# ASSAYED SYSTEM: PDE7A1 (Homo sapiens)
# Construct: purchased Calbiochem 524751
# ASSAY SUMMARY: Determination of PDE7 inhibition (SPA, [3H]cAMP)
# Type: biochemical
# TEST CONTEXT: 1,2,4-thiadiazoles-5-imino substituted as hydrochlorides; read-out: IC50 (PDE7A)
Counter-ions that a name gives are not always drawn.
# value in µM; strip the unit string

Name the reported IC50 value associated with the compound OCCN=c1nc(-c2ccccc2)n(-c2ccccc2)s1 [VP-2.3, hydrochloride]
1.97

Name the reported IC50 value associated with the compound c1ccc(-n2sc(=NCc3cccnc3)nc2-c2cccc3ccccc23)cc1 [hydrochloride]
1.5

Name the reported IC50 value associated with the compound CCCCCN=c1nc(-c2ccc(OC)cc2)n(-c2ccccc2)s1 [hydrochloride]
3.7

---

# ASSAYED SYSTEM: PDE7A1 (Homo sapiens)
# Construct: purchased Calbiochem 524751
# ASSAY SUMMARY: Determination of PDE7 inhibition (SPA, [3H]cAMP)
# Assay type: biochemical
# TEST CONTEXT: 1,2,4-thiadiazoles-5-imino substituted as hydrobromides; read-out: IC50 (PDE7A)
# Experimental: PDE-7 inhibition was performed with a commercial kit for the determination of phosphodiesterase activity (GE Healthcare Life Sciences, cat#TRKQ7090). The compounds to be evaluated were incubated (in concentrations between 0.1 nM and 100 μM) in presence of 0.02 U/well of PDE7A1 (Calbiochem cat#524751) and 0.05 μCi of [^3H] cAMP, for 20 min at 30° C. in the assay buffer of kit (total volume=100 μl). […]
Structures can show the parent of a compound that is named as a salt.
Can you tell me IC50 for the items I'm about to list?
# value in nM; strip the unit string

Name the reported IC50 value associated with the molecule OCCN=c1nc(-c2ccccc2)n(-c2cccc3ccccc23)s1 [hydrobromide]
2200

Name the reported IC50 value associated with the molecule Br.COc1ccc(-c2nc(=NCCO)sn2-c2ccccc2)cc1 [VP-1.40, hydrobromide]
1500

Name the reported IC50 value associated with the molecule N=c1nc(-c2ccccc2)n(-c2ccccc2)s1 [R1=Ph, R2=Ph, R3=H (hydrobromide)]
1020

Name the reported IC50 value associated with the molecule Br.COc1ccc(-n2sc(=NCCO)nc2-c2ccccc2)cc1 [VP-1.61, hydrobromide]
1180

Name the reported IC50 value associated with the molecule c1ccc(-c2nc(=NCc3cccnc3)sn2-c2cccc3ccccc23)cc1 [dihydrobromide]
870

Name the reported IC50 value associated with the molecule CCCCCN=c1nc(-c2ccccc2)n(-c2ccccc2)s1 [R1=Ph, R2=Ph, R3=n-Pent (hydrobromide)]
1440

Name the reported IC50 value associated with the molecule Br.CCOC(=O)CN=c1nc(-c2ccc(OC)cc2)n(-c2ccccc2)s1 [VP-1.65, hydrobromide]
890

Name the reported IC50 value associated with the molecule Br.Br.c1ccc(-c2nc(=NCc3cccnc3)sn2-c2ccccc2)cc1 [VP-1.14, dihydrobromide]
380

Name the reported IC50 value associated with the molecule Br.CCOC(=O)CN=c1nc(-c2ccccc2)n(-c2ccccc2)s1 [VP-1.16, hydrobromide]
1130

Name the reported IC50 value associated with the molecule CCOC(=O)CN=c1nc(-c2ccccc2)n(-c2ccc([N+](=O)[O-])cc2)s1 [hydrobromide]
790

Name the reported IC50 value associated with the molecule Br.CCOC(=O)CN=c1nc(-c2ccccc2)n(-c2ccc(OC)cc2)s1 [VP-1.62, hydrobromide]
780

Name the reported IC50 value associated with the molecule c1ccc(-c2nc(=NCCN3CCOCC3)sn2-c2ccccc2)cc1 [dihydrobromide]
1590

Name the reported IC50 value associated with the molecule Br.Br.COc1ccc(-c2nc(=NCc3cccnc3)sn2-c2ccccc2)cc1 [VP-1.43, dihydrobromide]
860

Name the reported IC50 value associated with the molecule O=[N+]([O-])c1ccc(-n2sc(=NCc3cccnc3)nc2-c2ccccc2)cc1 [dihydrobromide]
840

Name the reported IC50 value associated with the molecule c1ccc(-n2sc(=NCc3cccnc3)nc2-c2cccc3ccccc23)cc1 [dihydrobromide]
1080

Name the reported IC50 value associated with the molecule CCCCCN=c1nc(-c2ccc(OC)cc2)n(-c2ccccc2)s1 [hydrobromide]
810

Name the reported IC50 value associated with the molecule c1ccc(-c2nc(=NC3CCCCC3)sn2-c2ccccc2)cc1 [R1=Ph, R2=Ph, R3=Cy (hydrobromide)]
1640

Name the reported IC50 value associated with the molecule Br.OCCN=c1nc(-c2cccc3ccccc23)n(-c2ccccc2)s1 [VP-2.33, hydrobromide]
1240

Name the reported IC50 value associated with the molecule c1ccc(N=c2nc(-c3ccccc3)n(-c3ccccc3)s2)cc1 [R1=Ph, R2=Ph, R3=Ph (hydrobromide)]
3030

Name the reported IC50 value associated with the molecule Br.Br.COc1ccc(-n2sc(=NCc3cccnc3)nc2-c2ccccc2)cc1 [VP-1.60, dihydrobromide]
850

Name the reported IC50 value associated with the molecule COc1ccc(-c2nc(=Nc3ccccc3)sn2-c2ccccc2)cc1 [R1=pOMePh, R2=Ph, R3=Ph (hydrobromide)]
4360

Name the reported IC50 value associated with the molecule Br.OCCN=c1nc(-c2ccccc2)n(-c2ccccc2)s1 [VP-1.15, hydrobromide]
1110

---

Can you tell me Papp at 4 h for the items I'm about to list?
# ASSAY SUMMARY: in vitro
# TEST CONTEXT: PAMPA, pH 7.4

Name the reported Papp at 4 h value associated with the compound CN(C)CCCN1c2ccccc2Sc2ccccc21 [Promazine, reference compound]
9.7 ×10⁻⁶ cm/s

Name the reported Papp at 4 h value associated with the compound `Br.Br.c1ccc(-c2nc(=NCc3cccnc3)sn2-c2ccccc2)cc1`
10.7 ×10⁻⁶ cm/s

Name the reported Papp at 4 h value associated with the compound `Br.Br.COc1ccc(-n2sc(=NCc3cccnc3)nc2-c2ccccc2)cc1`
6.2 ×10⁻⁶ cm/s

Name the reported Papp at 4 h value associated with the compound `Br.COc1ccc(-n2sc(=NCCO)nc2-c2ccccc2)cc1`
13.7 ×10⁻⁶ cm/s

Name the reported Papp at 4 h value associated with the compound `Br.CCOC(=O)CN=c1nc(-c2ccccc2)n(-c2ccccc2)s1`
6.2 ×10⁻⁶ cm/s
